The measurements presented in this section are drawn from paper PMC6385310.

- PROTOCOL_NOTES: in vitro
- CONDITION_DETAILS: African green monkey
READOUT_KIND: CC50

Look up CC50 for the entries below, preserving their order.
1. COc1ccc(C#C[C@]2(O)CC[C@H]3[C@@H]4CC[C@@]5(O)CC6(CCC5=C4[C@@H](c4ccc(N(C)C)cc4)C[C@@]32C)OCCO6)cc1
2. CN(C)c1ccc([C@H]2C[C@@]3(C)[C@@H](CC[C@@]3(O)C#CC(F)(F)F)[C@@H]3CC[C@@]4(O)CC5(CCC4=C32)OCCO5)cc1
3. CN(C)c1ccc([C@H]2C[C@@]3(C)[C@@H](CC[C@@]3(O)C#CC(F)(F)F)[C@@H]3CCC4=CC(=O)CCC4=C32)cc1

> 100 µM
> 100 µM
> 100 µM

###

Can you tell me EC50 for the items I'm about to list?
- Tested on: VEEV TC-83 virus expressing a luciferase reporter gene (TC-83-luc)
- PROTOCOL_NOTES: microbe, parasite or virus in culture
- Assay type: cell-based, Venezuelan equine encephalitis virus
- CONDITION_DETAILS: Venezuelan equine encephalitis virus, Vero, read-out: EC50, concentration yielding 50% inhibition of viral replication
Answers are plain numbers, in µM.

Worked set:
Answer with reported EC50 of CN(C)c1ccc([C@H]2C[C@@]3(C)[C@@H](CC[C@@]3(O)C#C[Si](C)(C)C)[C@@H]3CC[C@@]4(O)CC5(CCC4=C32)OCCO5)cc1 [Compound 30]
11.1

Answer with reported EC50 of CN(C)c1ccc([C@H]2C[C@@]3(C)[C@@H](CC[C@@]3(O)C#CC(F)(F)F)[C@@H]3CCC4=CC(=O)CCC4=C32)cc1 [Compound 9, Trifluoromethylmifepristone]
17.8

Answer with reported EC50 of CC#C[C@]1(O)CC[C@H]2[C@@H]3CCC4=CC(=O)CCC4=C3[C@@H](c3ccc(N(C)C)cc3)C[C@@]21C [Compound 1, mifepristone, reference compound]
19.9

Answer with reported EC50 of CC(=O)O[C@]1(C(C)=O)CC[C@H]2[C@@H]3CCC4=CC(=O)CCC4=C3[C@@H](c3ccc(N(C)C)cc3)C[C@@]21C [Compound 21, Ulipristal Acetate, reference compound]
11.5

Answer with reported EC50 of CN(C)c1ccc([C@H]2C[C@@]3(C)[C@@H](CC[C@@]3(O)C#Cc3ccccc3)[C@@H]3CC[C@@]4(O)CC5(CCC4=C32)OCCO5)cc1 [Compound 36]
7.2

Answer with reported EC50 of CC(C)[Si](C#C[C@]1(O)CC[C@H]2[C@@H]3CCC4=CC(=O)CCC4=C3[C@@H](c3ccc(N(C)C)cc3)C[C@@]21C)(C(C)C)C(C)C [Compound 35]
16.3

Look up EC50 for the entries below, preserving their order.
1. CN(C)c1cccc([C@H]2C[C@@]3(C)[C@@H](CC[C@@]3(O)C#C[Si](C)(C)C)[C@@H]3CCC4=CC(=O)CCC4=C32)c1 [Compound 54]
2. COc1ccc(C2C[C@@]3(C)[C@@H](CC[C@@]3(O)C#C[Si](C)(C)C)[C@@H]3CCC4=CC(=O)CCC4=C23)cc1 (stereo partly shown) [Compound 51]
3. CC(C)[Si](C#C[C@]1(O)CC[C@H]2[C@@H]3CC[C@@]4(O)CC5(CCC4=C3[C@@H](c3ccc(N(C)C)cc3)C[C@@]21C)OCCO5)(C(C)C)C(C)C [Compound 32]

6
22.5
22

Look up EC50 for the entries below, preserving their order.
1. C[C@]12C[C@H](c3ccccc3)C3=C4CCC5(C[C@]4(O)CC[C@H]3[C@@H]1CC[C@@]2(O)C#C[Si](C)(C)C)OCCO5 [Compound 45]
2. CC[Si](C#C[C@]1(O)CC[C@H]2[C@@H]3CC[C@@]4(O)CC5(CCC4=C3[C@@H](c3ccc(N(C)C)cc3)C[C@@]21C)OCCO5)(CC)CC [Compound 31]
3. C[C@]12C[C@H](c3ccc(-c4ccccc4)cc3)C3=C4CCC(=O)C=C4CC[C@H]3[C@@H]1CC[C@@]2(O)C#C[Si](C)(C)C [Compound 53]
4. CN(C)c1ccc([C@H]2C[C@@]3(C)[C@@H](CC[C@@]3(O)C#CC(F)(F)F)[C@@H]3CC[C@@]4(O)CC5(CCC4=C32)OCCO5)cc1 [Compound 8]
5. CN(C)c1ccc([C@H]2C[C@@]3(C)[C@@H](CC[C@@]3(O)C#Cc3ccccc3)[C@@H]3CCC4=CC(=O)CCC4=C32)cc1 [Compound 38]

[2.6, 4.7, 5, 27.6, 8.46]
